System: M. tuberculosis 102
protocol_text: Broth dilution MIC vs M. tuberculosis 102
Type: cell-based
experimental_context: Mycobacterium tuberculosis, 102, pH 5.8, M. tuberculosis 102, 7H10 broth, read-out: MIC
// log10 of MIC lookup, one value per entry
value_kind: log10 of MIC (log10 of the value in µg/mL)

* CCCCCC(C)(CCCCC)OC(=O)c1cnc(Cl)cn1 [Example 45] | 0.90
* COCCOCCOCCOC(=O)c1cnc(Cl)cn1 [Example 12] | 0.30
* C=CC(C)OC(=O)c1cnc(Cl)cn1 (stereo not shown) [Example 32] | 0.30
* CC(C)COC(=O)c1cnccn1 [Example 49] | 0.30
* O=C(Oc1c(Br)cc(Br)cc1Br)c1cnccn1 [Example 4] | 1.51
* CCCCCCCOC(=O)c1cnc(Cl)cn1 [Example 18] | -1.22
* O=C(Oc1ccc(F)cc1)c1cnccn1 [Example 3] | 1.51
* CCCCCCCCC(C)OC(=O)c1cnc(Cl)cn1 (stereo not shown) [Example 19] | -1.52
* O=C(OCc1ccccc1)c1cnccn1 [Example 52] | 0.00
* CCCCCCCCCCCOC(=O)c1cnc(Cl)cn1 [Example 25] | -0.60
* CC(C)(C)OC(=O)c1cnc(Cl)cn1 [Example 35] | 0.30
* CCC(C)OC(=O)c1cnccn1 (stereo not shown) [Example 50] | 0.90
* CCCCCCC(C)(CCCCC)OC(=O)c1cnc(Cl)cn1 (stereo not shown) [Example 46] | 0.30
* CCCCCCC(C)OC(=O)c1cnc(F)cn1 (stereo not shown) [Example 29] | 0.30
* CCCCCCCCC(C)(CCCC)OC(=O)c1cnc(Cl)cn1 (stereo not shown) [Example 38] | 1.20
* CCCCCCCC(C)(CCCCC)OC(=O)c1cnc(Cl)cn1 (stereo not shown) [Example 47] | 0.30
* C=CCOC(=O)c1cnc(Cl)cn1 [Example 33] | 0.00
* COC(=O)c1cnc(Cl)cn1 [Example 5] | 0.60
* CCCOC(=O)c1cnc(Cl)cn1 [Example 15] | -1.22
* COC(=O)c1cnc(I)cn1 [Example 39] | 1.20
* CCCCCCCCCCCCCCCOC(=O)c1cnc(Cl)cn1 [Example 7] | -0.89
* CC(C)(C)c1ccc(OC(=O)c2cnccn2)cc1 [Example 65] | 1.40
* CCCCOCCOCCOC(=O)c1cnc(Cl)cn1 [Example 11] | -0.30
* O=C(OCc1ccccc1)c1cnc(Cl)cn1 [Example 30] | 0.00
* COC(=O)c1cnc(F)cn1 [Example 23] | 0.60
* Cc1cc(C(C)(C)C)c(OC(=O)c2cnccn2)c(C(C)(C)C)c1 [Example 51] | 2.11
* CCCCOC(=O)c1cnc(Cl)cn1 [Example 31] | -0.60
* Cc1ccc(OC(=O)c2cnccn2)cc1 [Example 64] | 2.00
* CCCCCC(C)(CCC)OC(=O)c1cnc(Cl)cn1 (stereo not shown) [Example 44] | 0.60
* CCCCCCCCOC(=O)c1cnc(Cl)cn1 [Example 14] | -1.22
* CCCCCCCCCCOC(=O)c1cnccn1 [Example 1] | -0.30
* CC1CCC(C(C)C)C(OC(=O)c2cnccn2)C1 (stereo not shown) [Example 56] | 0.30
* Cc1cc(C)c(OC(=O)c2cnccn2)c(C)c1 [Example 55] | 0.00
* CCCCCC(C)(CCCC)OC(=O)c1cnc(Cl)cn1 (stereo not shown) [Example 40] | 0.60
* CCOCCOCCOC(=O)c1cnc(Cl)cn1 [Example 10] | 0.00
* CCCCCCCCCCOC(=O)c1cnc(Cl)cn1 [Example 6] | -0.30
* CCCCCCCCCCCCCCCOC(=O)c1cnccn1 [Example 2] | -1.22
* CCCCCCC(C)(CCCCCC)OC(=O)c1cnc(Cl)cn1 [Example 17] | -0.60
* CCCCCOC(=O)c1cnc(Cl)cn1 [Example 26] | -1.22
* CCCCCCCCCCOC(=O)c1cnc(F)cn1 [Example 27] | 0.30
* CCCCCCC(CCCCCC)OC(=O)c1cnc(Cl)cn1 [Example 16] | -0.60
* CCCCCCCC(C)(CCCC)OC(=O)c1cnc(Cl)cn1 (stereo not shown) [Example 37] | 0.90
* CCCCCC(C)OC(=O)c1cnc(Cl)cn1 (stereo not shown) [Example 24] | -1.22
* CCCCCCCCCC(C)OC(=O)c1cnc(Cl)cn1 (stereo not shown) [Example 36] | -0.60

###

Observed MIC, system M. avium 101.
value_kind: MIC (µg/mL)

* CCCCCCCCCCOC(=O)c1cnccn1 | 32
* CCCCCCCCCCCOC(=O)c1cnc(Cl)cn1 | 16
* COCCOCCOCCOC(=O)c1cnc(Cl)cn1 | 64
* CCOCCOCCOC(=O)c1cnc(Cl)cn1 | 64

###

Observed MIC, system M. avium 101.
value_kind: MIC

• CCCCCC(C)(CCCC)OC(=O)c1cnc(Cl)cn1 (centres unmarked) = > 256 µg/mL
• COC(=O)c1cnc(F)cn1 = 64 µg/mL
• CCCOC(=O)c1cnc(Cl)cn1 = 16 µg/mL
• CCCCOCCOCCOC(=O)c1cnc(Cl)cn1 = 64 µg/mL
• Cc1cc(C)c(OC(=O)c2cnccn2)c(C)c1 = 64 µg/mL
• CCCCCCOC(=O)c1cnc(F)cn1 = 64 µg/mL
• CCCCCCCOC(=O)c1cnc(Cl)cn1 = 8 µg/mL
• CCCCCCC(CCCCCC)OC(=O)c1cnc(Cl)cn1 = 16 µg/mL
• CCCCCCCCCC(C)(CCCCCCC)OC(=O)c1cnc(Cl)cn1 (centres unmarked) = > 64 µg/mL
• C=CCOC(=O)c1cnc(Cl)cn1 = 64 µg/mL
• CCCCCCCCOC(=O)c1cnc(Cl)cn1 = 16 µg/mL

###

Observed MIC, system M. avium 101.
value_kind: MIC (µg/mL)

* CCCCCCC(C)OC(=O)c1cnc(Cl)cn1 (stereo not drawn) [Example 8] | 32
* CCCCCCCCCC(C)OC(=O)c1cnc(Cl)cn1 (stereo not drawn) [Example 36] | 16
* CCCCCCC(C)(C)OC(=O)c1cnc(Cl)cn1 [Example 21] | 64
* CCCCCCCCCCOC(=O)c1cnc(Cl)cn1 [Example 6] | 32
* O=C(OCc1ccccc1)c1cnc(Cl)cn1 [Example 30] | 8

###

Observed MIC, system M. avium 101.
value_kind: MIC

- CCCCCCC(C)OC(=O)c1cnc(F)cn1 (centres unmarked) [Example 29]: 32 µg/mL
- COC(=O)c1cnc(I)cn1 [Example 39]: 256 µg/mL
- COCCOCCOC(=O)c1cnc(Cl)cn1 [Example 9]: 64 µg/mL
- CCCCCCCCCCOC(=O)c1cnc(F)cn1 [Example 27]: 32 µg/mL
- CCCCCCCC(C)(CCCCC)OC(=O)c1cnc(Cl)cn1 (centres unmarked) [Example 47]: > 64 µg/mL
- O=C(OCc1ccccc1)c1cnccn1 [Example 52]: 64 µg/mL
- CCCCCC(C)OC(=O)c1cnc(Cl)cn1 (centres unmarked) [Example 24]: 32 µg/mL
- CCCCCCOC(=O)c1cnc(Cl)cn1 [Example 13]: 32 µg/mL
- C=CC(C)OC(=O)c1cnc(Cl)cn1 (centres unmarked) [Example 32]: 64 µg/mL
- CCCCOC(=O)c1cnc(Cl)cn1 [Example 31]: 64 µg/mL
- Cc1cc(C(C)(C)C)c(OC(=O)c2cnccn2)c(C(C)(C)C)c1 [Example 51]: > 256 µg/mL

###

Tested on: M. tuberculosis 102
protocol_text: Broth dilution MIC vs M. tuberculosis 102
Format: cell-based
experimental_context: Mycobacterium tuberculosis, 102, pH 5.8, M. tuberculosis 102, 7H10 broth, read-out: MIC
value_kind: MIC (µg/mL)

• CCCCCCC(C)(C)OC(=O)c1cnc(Cl)cn1 = 0.25
• CCCCCCCCCC(C)(CCCCCCC)OC(=O)c1cnc(Cl)cn1 (stereo not drawn) = 0.5
• C/C=C/COC(=O)c1cnccn1 = 2
• CC(C)COC(=O)c1cnc(Cl)cn1 = 2
• CCCCCCOC(=O)c1cnc(Cl)cn1 = 0.13
• COCCOCCOC(=O)c1cnc(Cl)cn1 = 2

###

System: M. avium 101
value_kind: MIC

• O=C(Oc1c(Br)cc(Br)cc1Br)c1cnccn1 = 128 µg/mL
• CCCCCOC(=O)c1cnc(Cl)cn1 = 32 µg/mL
• O=C(Oc1ccc(F)cc1)c1cnccn1 = 128 µg/mL
• CCCCCCCCCOC(=O)c1cnc(Cl)cn1 = 32 µg/mL
• CCCCCCCC(C)(CCCC)OC(=O)c1cnc(Cl)cn1 (centres unmarked) = > 64 µg/mL
• CCCCCC(C)(CCC)OC(=O)c1cnc(Cl)cn1 (centres unmarked) = > 256 µg/mL
• CC(C)(C)OC(=O)c1cnc(Cl)cn1 = 128 µg/mL
• CCC(C)OC(=O)c1cnccn1 (centres unmarked) = 256 µg/mL
• CCCCCCCCC(C)OC(=O)c1cnc(Cl)cn1 (centres unmarked) = 32 µg/mL
• CC(C)COC(=O)c1cnccn1 = 256 µg/mL
• CC(C)COC(=O)c1cnc(Cl)cn1 = 64 µg/mL
